setup.conditions: 293.15 K; 101.33 kPa; Liquid; Vibrating tube method
recorded.endpoint: mass density (kg/m3)

INSERT INTO assay_data (compound, result_units, numeric_value) VALUES
  ('C1CCCCC1 [cyclohexane]', 'kg/m3', 778.7),
  ('CCCCCC [hexane]', 'kg/m3', 659.4),
  ('CCCCCCCC [octane]', 'kg/m3', 702.5),
  ('CCc1ccccc1 [ethylbenzene]', 'kg/m3', 867.1),
  ('Cc1ccccc1 [toluene]', 'kg/m3', 866.7);

###

setup.conditions: 298.15 K; 101.33 kPa; Liquid; Capillary tube (Ostwald / Ubbelohde) method
recorded.endpoint: kinematic viscosity (m2/s)

INSERT INTO assay_data (item_smiles, result_units, numeric_value) VALUES
  ('CCCCCCCC', 'm2/s', '7.31e-07'),
  ('CCCCCC', 'm2/s', '4.49e-07'),
  ('CCc1ccccc1', 'm2/s', '7.32e-07'),
  ('C1CCCCC1', 'm2/s', '1.15e-06'),
  ('Cc1ccccc1', 'm2/s', '6.41e-07');
